Source: PubChem BioAssay

A collection of compounds and their measured cell count
# assay_summary: inhibitors of TNFa-induced NFkB p65 translocation, primary screen, imaging, HUVEC, MLSMR starter and 10KST1 sets (AID 438);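 further: compound added about 3h40 before a 20 min TNFalpha stimulation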
# reported_conditions: HUVEC TNFa-induced p65 nuclear translocation; measured here: nuclei count (cytotoxicity indicator), at 2.08 µM

compound | cell count
c1ccc(OCCCn2nnc(-c3ccncc3)n2)cc1 | 604
CCn1cc(C2=NOC(C(=O)Nc3c(C)nn(Cc4ccc(F)cc4)c3C)C2)c(C)n1 (stereo unspecified) | 766
O=C(NCc1ccccc1)N[C@@H](Cc1ccccc1)C(=O)O | 666
COC(=O)C1=C(C)Nc2ncnn2C1c1ccco1 (stereo unspecified) | 303
COc1ccccc1NC(=O)NCc1ccc2c(c1)OCO2 | 361
COc1ccc(OC)c(NC(=O)CS(=O)(=O)c2ccccc2)c1 | 410
